// provenance: PubChem BioAssay (NCATS)

- ASSAY: Quantitative High-Throughput drug screen in 47 multiple myeloma cell lines against the NCATS MIPE library collection: Karpas620_DSMZ cell viability assay (AID 1918959); also: nearly all actives have a fitted effect of over 30% in size; also: potency is read from the fitted curve at half-maximal effect
- TEST_CONTEXT: Karpas620 myeloma viability, CellTiter-Glo ATP luminescence, 48 h; series mostly up to 45.8 µM
Records with an inconclusive call do not appear. Active and inactive are the calls of the source. Calls follow the shape of the dose curve; as a rule, active = well fitted cell-killing curve with a large enough effect; inconclusive = small, poorly fitted or top-dose-only effect, or effect the other way; inactive = no such curve, though single readings can be large or run the other way.

{"COMPOUND": "O=C1NC(O)CCN1[C@@H]1O[C@H](CO)[C@H](O)[C@H]1O (stereo partly specified)", "Potency": "inactive"}
{"COMPOUND": "CCC[C@H]1C[C@H](C(=O)N[C@@H]([C@@H]2O[C@@H](SC)[C@@H](O)[C@@H](O)[C@@H]2O)[C@H](C)Cl)N(C)C1", "Potency": "inactive"}
{"COMPOUND": "Nc1cccc2c1C(=O)N(C1CCC(=O)NC1=O)C2=O (stereo unspecified)", "Potency": "0.0209 µM (active)"}
{"COMPOUND": "O=C(c1ccc(F)cc1)N1CCC[C@H](c2nc(-c3ccc(F)cc3)no2)C1", "Potency": "inactive"}
{"COMPOUND": "C#CCC(Cc1cnc2nc(N)nc(N)c2n1)c1ccc(C(=O)N[C@@H](CCC(=O)O)C(=O)O)cc1 (stereo partly specified)", "Potency": "inactive"}
{"COMPOUND": "CCCCCCCCCCCCCCCC(=O)OC[C@@H](NC(=O)C(Cl)Cl)[C@H](O)c1ccc([N+](=O)[O-])cc1", "Potency": "inactive"}
{"COMPOUND": "OC[C@H]1OC(O)C[C@@H](O)[C@H]1O (stereo partly specified)", "Potency": "inactive"}
{"COMPOUND": "CCN(CC)CCCCNc1ncc2c(n1)N(C)C(=O)N(c1c(Cl)c(OC)cc(OC)c1Cl)C2", "Potency": "inactive"}
{"COMPOUND": "CN(CC(=O)N(Cc1ccc(C2CCCCC2)cc1)c1ccc(C(=O)O)c(O)c1)S(=O)(=O)c1c(F)c(F)c(F)c(F)c1F", "Potency": "2.96 µM (active)"}
{"COMPOUND": "CC(=O)N[C@@H]1[C@H](O[C@@H]2c3ccc(c(Cl)c3)Oc3cc4cc(c3O[C@H]3O[C@H](CO)[C@@H](O)[C@H](O)[C@H]3NC(=O)CCCCCCCC(C)C)Oc3ccc(cc3Cl)C[C@H]3NC(=O)[C@H](N)c5ccc(O)c(c5)Oc5cc(O)cc(c5)[C@H](NC3=O)C(=O)N[C@H]4C(=O)N[C@H]3C(=O)N[C@@H]2C(=O)N[C@@H](C(=O)O)c2cc(O)cc(O[C@H]4O[C@H](CO)[C@@H](O)[C@H](O)[C@H]4O)c2-c2cc3ccc2O)O[C@H](CO)[C@@H](O)[C@@H]1O", "Potency": "inactive"}
{"COMPOUND": "C=CC(=O)N1CCc2ccc(-n3c(=O)ccc4cnc5ccc(-c6cnn(C)c6)cc5c43)cc21", "Potency": "3.72 µM (active)"}
{"COMPOUND": "CC(C)(C)[N+]([O-])=Cc1ccc(S(=O)(=O)O)cc1S(=O)(=O)O", "Potency": "inactive"}
{"COMPOUND": "C[C@H]1COc2c(N3CCN(C)CC3)c(F)cc3c(=O)c(C(=O)O)cn1c23", "Potency": "inactive"}
{"COMPOUND": "CCNC(=O)Nc1ccc(-c2nc3c(c(N4CCOC[C@H]4C)n2)CCN(C2COC2)C3)cc1", "Potency": "16.6 µM (active)"}
{"COMPOUND": "COC(=O)C1C2CC3c4[nH]c5cc(OC)ccc5c4CCN3CC2CC(OC(=O)c2cc(OC)c(OC)c(OC)c2)C1OC (stereo unspecified)", "Potency": "23.5 µM (active)"}
{"COMPOUND": "CN[C@H](CC(C)C)C(=O)N[C@H]1C(=O)N[C@@H](CC(N)=O)C(=O)N[C@@H]2C(=O)N[C@H]3C(=O)N[C@H](C(=O)N[C@H](C(=O)O)c4cc(O)cc(O)c4-c4cc3ccc4O)[C@H](O)c3ccc(c(Cl)c3)Oc3cc2cc(c3O[C@@H]2O[C@H](CO)[C@@H](O)[C@H](O)[C@@H]2O[C@H]2C[C@](C)(N)[C@H](O)[C@H](C)O2)Oc2ccc(cc2Cl)[C@H]1O", "Potency": "inactive"}
{"COMPOUND": "NC(=O)Nc1cc(-c2ccc(CN3CCOCC3)cc2)sc1C(N)=O", "Potency": "6.62 µM (active)"}
{"COMPOUND": "COc1cccc2c1C(=O)c1c(O)c3c(c(O)c1C2=O)C[C@@](O)(C(=O)CO)C[C@H]3O[C@H]1C[C@H](N)[C@H](O)[C@H](C)O1", "Potency": "1.05 µM (active)"}
{"COMPOUND": "Nc1nc(N)c2nc(-c3cccc(O)c3)c(-c3cccc(O)c3)nc2n1", "Potency": "11.8 µM (active)"}
{"COMPOUND": "CCn1c(=O)c2c(nc(C=Cc3ccc(OC)c(OC)c3)n2C)n(CC)c1=O", "Potency": "inactive"}
{"COMPOUND": "CC(=O)OCC(=O)[C@@]1(O)CC[C@H]2[C@@H]3CCC4=CC(=O)CC[C@]4(C)[C@@H]3C(=O)C[C@@]21C", "Potency": "inactive"}
{"COMPOUND": "Cc1cnc(Nc2ccc(N3CCN(C)CC3)cc2)nc1Nc1cccc(S(=O)(=O)NC(C)(C)C)c1", "Potency": "3.72 µM (active)"}
{"COMPOUND": "CN(C)c1ccc2cc(C(=O)N[C@@H](CCCN=C(N)CCl)C(=O)NCc3ccccc3)ccc2c1", "Potency": "5.9 µM (active)"}
{"COMPOUND": "CC(C)Oc1ccc(C(=O)N[C@H](CNC(=O)CN(C)C)Cc2ccc(-c3cn4cccc([C@H](C)O)c4n3)cc2)cc1Cl", "Potency": "0.187 µM (active)"}
{"COMPOUND": "CCCCOc1ccc(C(=O)Nc2ccc(F)cc2F)cc1", "Potency": "inactive"}
{"COMPOUND": "COc1ccc(Nc2nccc(NCCO)n2)cc1", "Potency": "inactive"}
{"COMPOUND": "CN(C)CCN1C(=O)c2cccc3cc(N)cc(c23)C1=O", "Potency": "26.4 µM (active)"}
{"COMPOUND": "CCc1cnn2c(NCc3ccc[n+]([O-])c3)cc(N3CCCC[C@@H]3CCO)nc12", "Potency": "0.0332 µM (active)"}
{"COMPOUND": "Cc1cc(O)c2c(c1)C(=O)c1cccc(O)c1C2=O", "Potency": "inactive"}
{"COMPOUND": "CN[C@@H]1C[C@H]2O[C@@](C)([C@H]1OC)n1c3ccccc3c3c4c(c5c6ccccc6n2c5c31)C(=O)N[C@H]4O", "Potency": "0.59 µM (active)"}
{"COMPOUND": "Cc1onc(-c2ccccc2)c1C(=O)N[C@@H]1C(=O)N2[C@@H](C(=O)O)C(C)(C)S[C@@H]12", "Potency": "inactive"}
